TGT: IKZF2 (Homo sapiens (Human), UniProt Q96SW2+Q9UKS7)
Sequence (Q9UKS7 whole entry): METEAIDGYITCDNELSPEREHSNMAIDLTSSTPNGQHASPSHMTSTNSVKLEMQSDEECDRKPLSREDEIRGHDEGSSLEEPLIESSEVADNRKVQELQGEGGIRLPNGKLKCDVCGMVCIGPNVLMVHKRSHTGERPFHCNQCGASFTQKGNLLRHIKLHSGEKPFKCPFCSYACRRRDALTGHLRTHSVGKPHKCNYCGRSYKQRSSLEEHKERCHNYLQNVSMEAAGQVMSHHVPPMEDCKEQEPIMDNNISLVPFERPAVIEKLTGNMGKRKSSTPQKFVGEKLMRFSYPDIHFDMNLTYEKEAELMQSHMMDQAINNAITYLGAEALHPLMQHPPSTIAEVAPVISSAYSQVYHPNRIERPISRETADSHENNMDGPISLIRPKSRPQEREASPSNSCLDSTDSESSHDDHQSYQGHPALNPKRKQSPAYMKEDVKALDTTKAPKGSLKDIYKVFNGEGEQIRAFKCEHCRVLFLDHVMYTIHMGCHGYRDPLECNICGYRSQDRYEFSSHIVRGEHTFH
Sequence (Q96SW2 whole entry): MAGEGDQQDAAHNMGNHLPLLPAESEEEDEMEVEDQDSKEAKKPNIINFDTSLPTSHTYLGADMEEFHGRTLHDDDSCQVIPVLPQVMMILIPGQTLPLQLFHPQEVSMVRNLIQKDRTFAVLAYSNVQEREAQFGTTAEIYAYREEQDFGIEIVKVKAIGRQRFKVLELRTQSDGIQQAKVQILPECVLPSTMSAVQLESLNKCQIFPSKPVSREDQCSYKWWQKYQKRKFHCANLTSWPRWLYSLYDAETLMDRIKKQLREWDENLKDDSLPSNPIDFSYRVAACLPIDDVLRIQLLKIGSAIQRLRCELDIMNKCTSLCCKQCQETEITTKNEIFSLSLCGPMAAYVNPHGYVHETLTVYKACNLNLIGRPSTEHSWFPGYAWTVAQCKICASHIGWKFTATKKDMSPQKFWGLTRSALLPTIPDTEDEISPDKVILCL
Sequence (Q16531 whole entry partner): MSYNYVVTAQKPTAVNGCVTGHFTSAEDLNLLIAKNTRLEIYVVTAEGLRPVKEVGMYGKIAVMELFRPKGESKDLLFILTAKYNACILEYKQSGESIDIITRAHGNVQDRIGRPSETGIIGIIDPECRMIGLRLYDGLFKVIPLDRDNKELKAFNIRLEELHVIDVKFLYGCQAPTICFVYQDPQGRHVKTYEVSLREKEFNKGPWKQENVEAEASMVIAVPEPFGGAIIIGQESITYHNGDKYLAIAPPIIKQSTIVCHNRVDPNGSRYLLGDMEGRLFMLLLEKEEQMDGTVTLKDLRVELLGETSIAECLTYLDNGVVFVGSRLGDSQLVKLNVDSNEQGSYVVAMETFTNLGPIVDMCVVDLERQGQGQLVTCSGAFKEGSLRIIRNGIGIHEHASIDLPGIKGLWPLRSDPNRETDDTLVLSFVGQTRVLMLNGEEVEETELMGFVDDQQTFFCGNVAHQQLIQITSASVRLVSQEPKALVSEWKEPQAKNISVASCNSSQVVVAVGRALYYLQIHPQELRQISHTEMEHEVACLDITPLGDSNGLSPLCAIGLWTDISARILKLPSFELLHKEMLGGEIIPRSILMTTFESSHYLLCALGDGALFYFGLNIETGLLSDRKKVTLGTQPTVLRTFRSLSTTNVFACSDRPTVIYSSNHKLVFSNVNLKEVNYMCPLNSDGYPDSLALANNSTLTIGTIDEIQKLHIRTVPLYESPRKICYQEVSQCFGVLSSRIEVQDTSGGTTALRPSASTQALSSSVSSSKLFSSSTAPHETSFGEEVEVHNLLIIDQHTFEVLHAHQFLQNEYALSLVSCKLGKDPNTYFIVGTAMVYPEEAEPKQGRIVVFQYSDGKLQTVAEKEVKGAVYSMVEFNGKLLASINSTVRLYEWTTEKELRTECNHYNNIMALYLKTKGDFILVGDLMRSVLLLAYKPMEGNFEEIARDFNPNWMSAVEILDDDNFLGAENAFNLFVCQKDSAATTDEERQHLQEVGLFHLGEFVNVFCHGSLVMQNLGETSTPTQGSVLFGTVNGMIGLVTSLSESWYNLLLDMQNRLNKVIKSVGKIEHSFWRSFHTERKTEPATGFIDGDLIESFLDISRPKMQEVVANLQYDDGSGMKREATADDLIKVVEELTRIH
TEST_SUMMARY: IKZF2 HiBit Assay (HEK293T Flp-in-HiBiT cells)
Format: cell-based
RUN_PARAMETERS: HEK-293T; HEK293T Flp-in-HiBiT cells, 6 hrs; read-out: IKZF2 HiBit degradation Dmax
READOUT_TYPE: Dmax

Problem: # lookup: Dmax of "Cn1cc(-c2cccc(CN3CCC4(CC3)COc3c4cc(F)c4c3CN([C@H]3CCC(=O)NC3=O)C4=O)c2)cn1"
Solution: 40 to 60%

Problem: Continue with "O=C1CC[C@@H](N2Cc3c(ccc4c3OCC43CCN(Cc4cccc(-c5cnn(C6COC6)c5)c4)CC3)C2=O)C(=O)N1"
Solution: > 80%

Problem: Continue with [2H]C([2H])(c1cccc(-c2cnn(C)c2)c1)N1CCC2(COc3c2ccc2c3CN([C@H]3CCC(=O)NC3=O)C2=O)C(F)(F)C1 (stereo partly drawn)
Solution: 60 to 80%

Problem: Continue with Cn1cc(-c2cccc(CN3CCC4(COc5c4ccc4c5CN([C@H]5CCC(=O)NC5=O)C4=O)C(F)(F)C3)c2)cn1 (stereo partly drawn)
Solution: 60 to 80%

Problem: Continue with "Cn1cc(-c2cccc(CN3CCC4(CC3)COc3c4cc(C#N)c4c3CN([C@H]3CCC(=O)NC3=O)C4=O)c2)cn1"
Solution: 40 to 60%

Now for another entry.
Problem: # lookup: Dmax of Cn1cc2c(CN3CCC4(COc5c4ccc4c5CN([C@H]5CCC(=O)NC5=O)C4=O)C(F)(F)C3)cccc2n1 (stereo partly drawn)
Solution: 60 to 80%

====

TGT: IKZF2 (Homo sapiens (Human), UniProt Q96SW2+Q9UKS7)
TEST_SUMMARY: IKZF2 HiBiT Assay (Jurkat-IKZF2-HiBiT cell line)
Assay type: cell-based
RUN_PARAMETERS: Jurkat-IKZF2-HiBiT cells, 24 hours; read-out: HiBit assay degradation analysis DC50
Reported DC50 values follow for various molecules

Some solved entries appear below for comparison.
Problem: Look up DC50 with IKZF2 (Homo sapiens (Human), UniProt Q96SW2+Q9UKS7) for this molecule: O=C1CCC(N2Cc3c(ccc4c3OCC43CCN(Cc4cnn(-c5cccc(F)c5)c4)CC3)C2=O)C(=O)N1 (centres unmarked) [Compound A311]
Solution: > 500 nM

Problem: Continue with O=C1CCC(N2Cc3c(ccc4c3OCC43CCN(Cc4cccn5nccc45)CC3)C2=O)C(=O)N1 (centres unmarked) [Compound A58]
Solution: > 500 nM

Problem: Continue with O=C1CCC(N2Cc3c(ccc4c3OCC43CCN(Cc4cccc(-c5cccnc5)c4)CC3)C2=O)C(=O)N1 (centres unmarked) [Compound A132]
Solution: < 50 nM

Problem: Continue with O=C1CCC(N2Cc3c(ccc4c3OCC43CCN(Cc4ccn(-c5ccccc5Cl)n4)CC3)C2=O)C(=O)N1 (centres unmarked) [Compound A321]
Solution: > 500 nM

Problem: Continue with O=C1CC[C@H](N2Cc3c(ccc4c3OCC43CCN(Cc4cnn(S(=O)(=O)c5ccccc5F)c4)CC3)C2=O)C(=O)N1 [Compound A355]
Solution: 200 to 500 nM

Further cases:
Problem: Look up DC50 with IKZF2 (Homo sapiens (Human), UniProt Q96SW2+Q9UKS7) for this molecule: O=C1CC[C@H](N2Cc3c(ccc4c3OCC43CCN(Cc4cccc(-c5cnn(C[C@@H]6CCO6)c5)c4)CC3)C2=O)C(=O)N1 [Compound A274]
Solution: 50 to 200 nM

Problem: Continue with CCOc1ccc(CN2CCC3(CC2)COc2c3ccc3c2CN(C2CCC(=O)NC2=O)C3=O)cn1 (centres unmarked) [Compound A202]
Solution: > 500 nM

Problem: Continue with O=C1CCC(N2Cc3c(ccc4c3OCC43CCN(Cc4cccc(N5CCOCC5)c4)CC3)C2=O)C(=O)N1 (centres unmarked) [Compound A97]
Solution: > 500 nM

Problem: Continue with O=C1CCC(N2Cc3c(ccc4c3OCC43CCN(Cc4ccc5ccoc5c4)CC3)C2=O)C(=O)N1 (centres unmarked) [Compound A116]
Solution: < 50 nM

Problem: Continue with O=C1CCC(N2Cc3c(ccc4c3OCC43CCN(Cc4cccnc4Cl)CC3)C2=O)C(=O)N1 (centres unmarked) [Compound A249]
Solution: > 500 nM

Problem: Continue with O=C1CCC(N2Cc3c(ccc4c3OCC43CCN(Cc4ccc(Cl)cc4)CC3)C2=O)C(=O)N1 (centres unmarked) [Compound A32]
Solution: > 500 nM

====

TGT: IKZF2 (Homo sapiens (Human), UniProt Q96SW2+Q9UKS7)
TEST_SUMMARY: IKZF2 HiBiT Assay (Jurkat-IKZF2-HiBiT cell line)
Type: cell-based
RUN_PARAMETERS: Jurkat-IKZF2-HiBiT cells, 24 hours; read-out: HiBit assay degradation analysis DC50
READOUT_TYPE: DC50

Some solved entries appear below for comparison.
Problem: Look up DC50 with IKZF2 (Homo sapiens (Human), UniProt Q96SW2+Q9UKS7) for this molecule: O=C1CCC(N2Cc3c(ccc4c3OCC43CCN(Cc4ccc(OCc5ccccc5)nc4)CC3)C2=O)C(=O)N1 (stereo not shown) [Compound A339]
Solution: > 500 nM

Problem: Continue with O=C1CCC(N2Cc3c(ccc4c3OCC43CCN(Cc4ccc(-c5ccccc5)cc4)CC3)C2=O)C(=O)N1 (stereo not shown) [Compound A25]
Solution: > 500 nM

Problem: Continue with Cc1ccc(CN2CCC3(CC2)COc2c3ccc3c2CN(C2CCC(=O)NC2=O)C3=O)cc1 (stereo not shown) [Compound A15]
Solution: 200 to 500 nM

Further cases:
Problem: Look up DC50 with IKZF2 (Homo sapiens (Human), UniProt Q96SW2+Q9UKS7) for this molecule: O=C1CC[C@H](N2Cc3c(ccc4c3OCC43CCN(Cc4cccc(-c5cnn([C@H]6CCOC6)c5)c4)CC3)C2=O)C(=O)N1 [Compound A269]
Solution: 50 to 200 nM

Problem: Continue with Cn1cc2cc(CN3CCC4(CC3)COc3c4ccc4c3CN(C3CCC(=O)NC3=O)C4=O)ccc2n1 (stereo not shown) [Compound A68]
Solution: > 500 nM

Problem: Continue with O=C1CCC(N2Cc3c(ccc4c3OCC43CCN(Cc4cnn(-c5ccccc5)c4)CC3)C2=O)C(=O)N1 (stereo not shown) [Compound A221]
Solution: > 500 nM

Problem: Continue with O=C1CC[C@H](N2Cc3c(ccc4c3OCC43CCN(Cc4ccc5c(c4)NC(=O)CC5)CC3)C2=O)C(=O)N1 [Compound A303]
Solution: 200 to 500 nM

====

Reported DC50 values follow for various compounds
TGT: IKZF2 (Homo sapiens (Human), UniProt Q96SW2+Q9UKS7)
TEST_SUMMARY: IKZF2 HiBit Assay (HEK293T Flp-in-HiBiT cells)
Type: cell-based
RUN_PARAMETERS: HEK293T Flp-in-HiBiT cells, 6 hrs; read-out: IKZF2 HiBit degradation DC50

Some solved entries appear below for comparison.
Problem: # lookup: DC50 of "O=C1CC[C@H](N2Cc3c(ccc4c3OCC43CCN(Cc4cc(-c5ccc(Cl)cc5)ns4)CC3)C2=O)C(=O)N1"
Solution: 10 to 100 nM

Problem: Continue with "Cc1cc2c(c3c1C(=O)N([C@H]1CCC(=O)NC1=O)C3)OCC21CCN(Cc2cccc(-c3cnn(C)c3)c2)CC1"
Solution: > 1000 nM

Problem: Continue with O=C1CC[C@H](N2Cc3c(ccc4c3OCC43CCN(Cc4cnn(-c5ccc(Cl)cc5)c4)CC3(F)F)C2=O)C(=O)N1 (stereo partly drawn)
Solution: 1 to 10 nM

Problem: Continue with "[2H]C([2H])(c1cccc(-c2cnn(C)c2)c1)N1CCC2(CC1)COc1c2ccc2c1CN([C@H]1CCC(=O)NC1=O)C2=O"
Solution: 1 to 10 nM

Problem: Continue with "[2H]C([2H])(c1ccc2cn(C)nc2c1)N1CCC2(CC1)COc1c2ccc2c1CN([C@H]1CCC(=O)NC1=O)C2=O"
Solution: 1 to 10 nM

Further cases:
Problem: # lookup: DC50 of "O=C1CC[C@H](N2Cc3c4c(cc(Cl)c3C2=O)C2(CCN(Cc3cccc5cn[nH]c35)CC2)CO4)C(=O)N1"
Solution: > 1000 nM

Problem: Continue with [2H]C1([2H])Oc2c(ccc3c2CN(C2CCC(=O)NC2=O)C3=O)C12CCN(Cc1cccc(-c3cnn(C)c3)c1)CC2 (stereo not drawn)
Solution: 1 to 10 nM

Problem: Continue with O=C1CC[C@H](N2Cc3c(ccc4c3OCC43CCN(Cc4ccc5c(c4)CC(=O)N5)CC3(F)F)C2=O)C(=O)N1 (stereo partly drawn)
Solution: 1 to 10 nM

Problem: Continue with O=C1CC[C@H](N2Cc3c(ccc4c3OCC43CCN(Cc4cnn(S(=O)(=O)c5ccccc5Cl)c4)CC3(F)F)C2=O)C(=O)N1 (stereo partly drawn)
Solution: < 1 nM

Problem: Continue with "Cn1cc(-c2cccc(CN3CCC4(CC3)CNc3c4ccc4c3CN([C@H]3CCC(=O)NC3=O)C4=O)c2)cn1"
Solution: 10 to 100 nM

Problem: Continue with "Cn1cc(-c2cccc(CN3CCC4(CC3)COc3c4cc(C#N)c4c3CN([C@H]3CCC(=O)NC3=O)C4=O)c2)cn1"
Solution: 100 to 1000 nM

Problem: Continue with Cn1cc2cccc(CN3CCC4(COc5c4ccc4c5CN([C@H]5CCC(=O)NC5=O)C4=O)C(F)(F)C3)c2n1 (stereo partly drawn)
Solution: 1 to 10 nM
